Listed here: items and their measured pIC50.
# TGT: human alpha2C receptors (Homo sapiens)
# Sequence (P18825 1-462): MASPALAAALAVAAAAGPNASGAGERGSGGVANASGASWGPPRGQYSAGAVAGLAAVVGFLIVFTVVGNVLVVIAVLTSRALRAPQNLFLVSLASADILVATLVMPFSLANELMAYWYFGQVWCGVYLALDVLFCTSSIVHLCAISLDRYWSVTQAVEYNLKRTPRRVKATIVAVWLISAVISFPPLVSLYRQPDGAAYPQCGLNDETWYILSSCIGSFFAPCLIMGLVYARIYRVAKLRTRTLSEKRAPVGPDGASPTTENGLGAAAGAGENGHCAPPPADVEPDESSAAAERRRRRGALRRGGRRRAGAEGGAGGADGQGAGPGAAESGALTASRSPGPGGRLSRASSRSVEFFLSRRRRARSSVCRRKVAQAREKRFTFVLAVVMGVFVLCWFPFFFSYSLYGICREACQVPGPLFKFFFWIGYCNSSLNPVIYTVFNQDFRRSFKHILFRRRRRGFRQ
# METHOD DESCRIPTION: Determination of alpha2C antagonistic activity in vitro (FLIPR calcium assay)
pIC50: −log10 of the molar value.
ASSAY ENDPOINT: pIC50

1. Cc1nc2ccc(Cl)cc2n1[C@H]1CCCN(C[C@H]2COc3ccccc3O2)C1 :: > 10.00
2. CSc1ncc2c(n1)CN([C@H]1CCCN(C[C@H]3COc4ccccc4O3)C1)C2=O :: > 11.00
3. O=c1[nH]c2ccc(F)cc2n1[C@H]1CCCN(C[C@H]2COc3ccccc3O2)C1 :: > 10.00

* * *

# TGT: human alpha2C receptors (Homo sapiens, UniProt P18825)
# METHOD DESCRIPTION: Determination of alpha2C antagonistic activity in vitro (FLIPR calcium assay)
# MEASUREMENT CONTEXT: Alpha 2C Adrenaline Kb, Kb calculated from IC50 with the Cheng-Prusoff equation; adrenaline as agonist; CHO cells, human alpha2C
ASSAY ENDPOINT: Kb

1. CCc1nc2ccc(F)cc2n1[C@H]1CCCN(C[C@H]2COc3ccccc3O2)C1 [example 84] :: < 0.01 nM
2. O=C1NC(c2ccccc2)(c2ccccc2)CN1[C@H]1CCCN(C[C@H]2COc3ccccc3O2)C1 [example 2] :: < 0.01 nM
3. O=C1c2ccc(Cl)cc2CN1[C@H]1CCCN(C[C@H]2COc3ccccc3O2)C1 [example 60] :: < 0.01 nM

* * *

# TGT: human alpha2C receptors (Homo sapiens)
# METHOD DESCRIPTION: Determination of alpha2C antagonistic activity in vitro (FLIPR calcium assay)
# MEASUREMENT CONTEXT: Alpha 2C Adrenaline Kb, Kb calculated from IC50 with the Cheng-Prusoff equation; adrenaline as agonist; CHO cells, human alpha2C
ASSAY ENDPOINT: Kb

1) Cc1nc2ccc(Cl)cc2n1[C@H]1CCCN(C[C@H]2COc3ccccc3O2)C1 :: < 0.01 nM
2) CSc1ncc2c(n1)CN([C@H]1CCCN(C[C@H]3COc4ccccc4O3)C1)C2=O :: < 0.001 nM
3) Fc1ccc2c(c1)ncn2[C@H]1CCCN(C[C@H]2COc3ccccc3O2)C1 :: < 0.01 nM

* * *

Listed here: items and their measured pIC50.
# TGT: human alpha2C receptors (Homo sapiens, UniProt P18825)
# METHOD DESCRIPTION: Determination of alpha2C antagonistic activity in vitro (FLIPR calcium assay)
pIC50: −log10 of the molar value.
ASSAY ENDPOINT: pIC50

1) N#Cc1ccc2c(c1)CN([C@H]1CCCN(C[C@H]3COc4ccccc4O3)C1)C2=O :: 8.89
2) O=C1C(=O)N([C@H]2CCCN(C[C@H]3COc4ccccc4O3)C2)CC1c1ccccc1 (stereo partly shown) :: 8.81
3) O=C1c2cccnc2C(=O)N1[C@H]1CCCN(C[C@H]2COc3ccccc3O2)C1 :: 9.02
4) c1ccc2c(c1)OC[C@H](CN1CCC[C@H](n3nnc4ccccc43)C1)O2 :: 9.07
5) CC(C)N1C(=O)N([C@H]2CCCN(C[C@H]3COc4ccccc4O3)C2)C(=O)C1(C)C :: 9.00
6) CC1CCC(=O)N1[C@H]1CCCN(C[C@H]2COc3ccccc3O2)C1 (stereo partly shown) :: 8.95
7) CC(C)(C)N1C(=O)C(=O)N([C@H]2CCCN(C[C@H]3COc4ccccc4O3)C2)C1=O :: 9.10

* * *

# TGT: human alpha2A receptors (Homo sapiens, UniProt P08913)
# METHOD DESCRIPTION: cell-based
ASSAY ENDPOINT: Kb

1) CSc1ncc2c(n1)C(=O)N([C@H]1CCCN(C[C@H]3COc4ccccc4O3)C1)C2 :: > 449 nM
2) CCN1CC(=O)N([C@H]2CCCN(C[C@H]3COc4ccccc4O3)C2)C1=O :: > 449 nM
3) COc1cc2c(cc1OC)C(=O)N([C@H]1CCCN(C[C@H]3COc4ccccc4O3)C1)C2 :: > 449 nM
4) O=C1C(=O)N([C@H]2CCCN(C[C@H]3COc4ccccc4O3)C2)C(=O)N1C1CCCCC1 :: 175 nM
5) CC1(C)CC(=O)N([C@H]2CCCN(C[C@H]3COc4ccccc4O3)C2)C1 :: > 449 nM
6) COc1ccc2nc(C)n([C@H]3CCCN(C[C@H]4COc5ccccc5O4)C3)c2n1 :: > 449 nM
7) O=C1C(=O)N([C@H]2CCCN(C[C@H]3COc4ccccc4O3)C2)CC1c1ccccc1 (some centres unmarked) :: > 449 nM
8) Cn1c(=O)n([C@H]2CCCN(C[C@H]3COc4ccccc4O3)C2)c2ccccc21 :: > 449 nM
9) CC(C)(C)N1CC(=O)N([C@H]2CCCN(C[C@H]3COc4ccccc4O3)C2)C1=O :: > 449 nM
10) Cc1nc2ncccc2n1[C@H]1CCCN(C[C@H]2COc3ccccc3O2)C1 :: > 449 nM
11) O=C1CC(c2ccccc2)CN1[C@H]1CCCN(C[C@H]2COc3ccccc3O2)C1 (some centres unmarked) :: 234 nM

* * *

# TGT: human alpha2A receptors (Homo sapiens)
# METHOD DESCRIPTION: cell-based
Structures can show the parent of a compound that is named as a salt.
Listed here: items and their measured Kb.
ASSAY ENDPOINT: Kb

1) CCCN1C(=O)C(=O)N([C@H]2CCCN(C[C@H]3COc4ccccc4O3)C2)C1=O :: > 449 nM
2) O=C1c2cccc(F)c2C(=O)N1[C@H]1CCCN(C[C@H]2COc3ccccc3O2)C1 [example 63, hydrochloride] :: > 449 nM
3) CCc1nc2cccnc2n1[C@H]1CCCN(C[C@H]2COc3ccccc3O2)C1 :: > 449 nM
4) O=C1c2cccnc2CN1[C@H]1CCCN(C[C@H]2COc3ccccc3O2)C1 :: > 449 nM

* * *

# TGT: human alpha2A receptors (Homo sapiens, UniProt P08913)
# Sequence (P08913 1-465): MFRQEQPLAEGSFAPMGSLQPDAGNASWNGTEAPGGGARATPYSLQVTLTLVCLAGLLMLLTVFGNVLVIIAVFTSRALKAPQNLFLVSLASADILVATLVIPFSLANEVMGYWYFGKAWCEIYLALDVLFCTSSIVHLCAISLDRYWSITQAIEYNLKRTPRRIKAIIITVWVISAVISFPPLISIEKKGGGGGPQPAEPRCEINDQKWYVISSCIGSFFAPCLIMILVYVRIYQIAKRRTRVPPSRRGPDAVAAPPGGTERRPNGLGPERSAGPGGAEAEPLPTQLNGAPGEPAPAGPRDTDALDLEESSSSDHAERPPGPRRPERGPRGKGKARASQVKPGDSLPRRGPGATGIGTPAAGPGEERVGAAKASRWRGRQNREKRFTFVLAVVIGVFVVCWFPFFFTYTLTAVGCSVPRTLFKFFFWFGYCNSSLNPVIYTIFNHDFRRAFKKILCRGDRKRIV
# METHOD DESCRIPTION: cell-based
Listed here: items and their measured Kb.
ASSAY ENDPOINT: Kb

1. O=C1C(c2ccccc2)CCN1[C@H]1CCCN(C[C@H]2COc3ccccc3O2)C1 (stereo partly shown) :: > 449 nM
2. O=C1c2ncncc2CN1[C@H]1CCCN(C[C@H]2COc3ccccc3O2)C1 :: > 449 nM
3. CC1(c2ccccc2)NC(=O)N([C@H]2CCCN(C[C@H]3COc4ccccc4O3)C2)C1=O (stereo partly shown) :: 1 nM
4. O=S1(=O)Nc2ccccc2N1[C@H]1CCCN(C[C@H]2COc3ccccc3O2)C1 :: 323 nM
5. O=C1C(=O)N([C@H]2CCCN(C[C@H]3COc4ccccc4O3)C2)C(=O)N1Cc1ccncc1 :: > 449 nM
6. O=C1c2ccccc2C(=O)N1[C@H]1CCCN(C[C@H]2COc3ccccc3O2)C1 :: > 449 nM
7. Cn1ncc2c1CN([C@H]1CCCN(C[C@H]3COc4ccccc4O3)C1)C2=O :: > 449 nM
